B1: VTI1B (parent)
chain: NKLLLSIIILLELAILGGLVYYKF

Variants of: B1
Assay: protein stability index of a GFP-peptide fusion (GPS, HEK-293T) (PSI 1-6); higher = more stable;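 also: lentivirally expressed fusions sorted by FACS into six bins by GFP to DsRed ratio, PSI derived from sequencing read proportions per bin multiplied by bin number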
Conditions: c terminus: a fixed tail appended
Mark criterion not met for protein stability index values under 3, and criterion met for everything at or above.

Check out these entries, answers already filled in.
>>> class("A14Y")
"criterion met"
>>> class("K23G")
"criterion not met"
>>> class("I8Q")
"criterion met"
>>> class("K23T")
"criterion not met"
>>> class("K23F")
"criterion not met"
>>> class("L10G")
"criterion not met"
>>> class("G17Y")
"criterion not met"
>>> class("L5K")
"criterion not met"

[ask] Is reported protein stability index greater than or equal to 3 here: `Y22H`
[reply] criterion met

[ask] In plain terms: is recorded protein stability index at least 3 for `V20L` ?
[reply] criterion met
